biological target: APOL1 (Homo sapiens); test: MultiTox-Fluor Multiplex Cytotoxicity Assay in tet-inducible APOL1 T-REx-HEK293 cells (cell rescue, ratio of dead to live cells); settings: tet-inducible transgenic APOL1 T-REx-HEK293 cell lines, 50 ng/mL tet, 24 hours; read-out: IP50 (i.e., IC50 for cell proliferation)
Here the recorded IC50 is given for each entry.

Below are worked cases with known answers.
CCc1cc2c(s1)CCO[C@@]21CCN(Cc2cn(-c3cncnc3)nn2)[C@@H](C)C1 = < 100 nM
CCc1cc2c(s1)CCO[C@@]21CCN(Cc2cn(CC(=O)N3CCOCC3)nn2)[C@@H](C)C1 = 100 to 500 nM
CCc1cc2c(s1)CCOC21CCN(Cc2ccc(C(=O)NCCO)nc2)CC1 = 100 to 500 nM
CCc1cc2c(s1)CCO[C@@]21CCN(C[C@H]2C[C@@H](NC(=O)c3cccc4c3OCCC4)C2)[C@@H](C)C1 = 100 to 500 nM
Cc1cn2nc(CN3CC[C@]4(C[C@@H]3C)OCC(O)c3cc(Cl)sc34)cc2c(NC2CC2)n1 (mixture of isomers) = < 100 nM

Task item: Item `C[C@H]1C[C@@]2(CCN1C[C@@H](O)C(N)=O)OCCc1cc(Cl)sc12` has what recorded IC50?
Reply: 100 to 500 nM

Task item: Item CCc1cc2c(s1)CCO[C@@]21CCN(CC2CN(C(=O)C3CCNC3=O)C2)[C@@H](C)C1 (stereo partly shown) has what recorded IC50?
Reply: < 100 nM

* * *

Here the recorded pIC50 is given for each entry.
Target: APOL1 (Homo sapiens, UniProt O14791)
Sequence (O14791 1-398 S342G/I384M): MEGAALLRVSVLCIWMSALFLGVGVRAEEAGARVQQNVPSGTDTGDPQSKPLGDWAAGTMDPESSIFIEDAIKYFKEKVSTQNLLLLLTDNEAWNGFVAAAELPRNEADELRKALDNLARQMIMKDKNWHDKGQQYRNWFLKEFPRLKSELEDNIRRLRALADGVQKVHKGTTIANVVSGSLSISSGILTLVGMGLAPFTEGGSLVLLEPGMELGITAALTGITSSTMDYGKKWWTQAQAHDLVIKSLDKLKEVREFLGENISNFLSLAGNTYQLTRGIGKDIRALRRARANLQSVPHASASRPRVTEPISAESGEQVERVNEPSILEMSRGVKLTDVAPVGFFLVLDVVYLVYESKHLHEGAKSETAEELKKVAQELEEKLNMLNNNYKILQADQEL
Assay: MultiTox-Fluor Multiplex Cytotoxicity Assay in tet-inducible APOL1 T-REx-HEK293 cells (cell rescue, ratio of dead to live cells)
Conditions: tet-inducible transgenic APOL1 T-REx-HEK293 cell lines, 50 ng/mL tet, 24 hours; read-out: IP50 (i.e., IC50 for cell proliferation)
pIC50: −log10 of the molar value.

C[C@H]1C[C@@]2(CCN1Cc1cnn(C3CS(=O)(=O)C3)c1)OCCc1c2sc(C(F)(F)F)c1CO = > 7.00
C[C@H]1C[C@@]2(CCN1Cc1cnn(C[C@@H](O)C(C)(C)O)c1)OCCc1c2sc(C(F)(F)F)c1CO = > 7.00
Cc1cncc(N2CCC(CN3CC[C@]4(C[C@@H]3C)OCCc3c4sc(Cl)c3CO)CC2)n1 = 6.00 to 6.30
Cc1cnccc1CN1CC[C@]2(C[C@@H]1C)OCCc1cc(Cl)sc12 = 6.00 to 6.30
C[C@H]1C[C@@]2(CCN1Cc1cnn(Cc3cccnc3)c1)OCCc1cc(Cl)sc12 = > 7.00

Task item: Item `CCc1cc2c(s1)CCO[C@@]21CCN(C[C@H]2C[C@@H](NC(=O)C(F)(F)F)C2)[C@@H](C)C1` has what recorded pIC50?
Reply: 6.30 to 7.00

Task item: Item `C[C@H]1C[C@@]2(CCN1CCCn1cccn1)OCCc1cc(Cl)sc12` has what recorded pIC50?
Reply: 6.00 to 6.30

Task item: Item CCc1cc2c(s1)CCO[C@@]21CCN(Cc2cn(C3CCCN(S(C)(=O)=O)C3)nn2)[C@@H](C)C1 (stereo partly drawn) has what recorded pIC50?
Reply: 6.30 to 7.00

* * *

biological target: APOL1 (Homo sapiens, UniProt O14791); assay: MultiTox-Fluor Multiplex Cytotoxicity Assay in tet-inducible APOL1 T-REx-HEK293 cells (cell rescue, ratio of dead to live cells); conditions: tet-inducible transgenic APOL1 T-REx-HEK293 cell lines, 50 ng/mL tet, 24 hours; read-out: IP50 (i.e., IC50 for cell proliferation)
pIC50: −log10 of the molar value.
Here the recorded pIC50 is given for each entry.

Cc1ncc(CN2CC[C@]3(C[C@@H]2C)OC[C@H](O)c2cc(Cl)sc23)cn1 = 6.30 to 7.00
CCc1cc2c(s1)[C@]1(CCN(Cc3cn(CCS(C)(=O)=O)nn3)[C@@H](C)C1)OCC2O (some centres unmarked) = > 7.00
CCc1cc2c(s1)CCO[C@@]21CCN(C[C@H]2C[C@@H](NC(=O)OC(C)C)C2)[C@@H](C)C1 = > 7.00

Task item: Item C[C@H]1C[C@@]2(CCN1CC1CC1(F)F)OCCc1cc(CC(F)F)sc12 (some centres unmarked) has what recorded pIC50?
Reply: > 7.00

Task item: Item `C[C@H]1C[C@@]2(CCN1Cc1cnn(C3CN(S(C)(=O)=O)C3)c1)OC[C@@H](O)c1cc(C(F)(F)F)sc12` has what recorded pIC50?
Reply: > 7.00

Task item: Item `CCc1cc2c(s1)CCOC21CCN(Cc2cn([C@H]3CC[C@@H]3O)nn2)CC1` has what recorded pIC50?
Reply: 6.00 to 6.30

Task item: Item `C[C@H]1C[C@@]2(CCN1Cc1ccccn1)OC[C@H](O)c1cc(Cl)sc12` has what recorded pIC50?
Reply: 6.00 to 6.30

Task item: Item CCc1cc2c(s1)CCO[C@@]21CCN(CC2CN(C(=O)C3COCCO3)C2)[C@@H](C)C1 (some centres unmarked) has what recorded pIC50?
Reply: > 7.00

Task item: Item `CCc1cc2c(s1)CCO[C@@]21CCN(Cc2cn(Cc3ccncn3)nn2)[C@@H](C)C1` has what recorded pIC50?
Reply: 6.30 to 7.00

Task item: Item `C[C@H]1C[C@@]2(CCN1Cc1ccc(N3CCCC3=O)cc1)OCCc1c2sc(Cl)c1CO` has what recorded pIC50?
Reply: > 7.00

Task item: Item `CCc1cc2c(s1)CCOC21CCN(Cc2cn(CCCN3CC(O)C3)nn2)CC1` has what recorded pIC50?
Reply: 6.00 to 6.30

* * *

Target: APOL1 (Homo sapiens)
Sequence (O14791 1-398 S342G/I384M): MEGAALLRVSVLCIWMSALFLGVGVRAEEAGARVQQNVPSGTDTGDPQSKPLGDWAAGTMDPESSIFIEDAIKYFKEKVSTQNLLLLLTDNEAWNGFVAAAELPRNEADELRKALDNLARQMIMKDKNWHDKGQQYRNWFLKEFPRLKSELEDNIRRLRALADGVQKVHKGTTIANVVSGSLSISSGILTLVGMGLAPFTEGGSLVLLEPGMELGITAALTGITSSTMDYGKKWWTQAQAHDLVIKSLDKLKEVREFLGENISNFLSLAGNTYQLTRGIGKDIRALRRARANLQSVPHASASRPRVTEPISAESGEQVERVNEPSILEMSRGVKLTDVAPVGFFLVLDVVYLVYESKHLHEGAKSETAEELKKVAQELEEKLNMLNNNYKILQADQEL
Assay: MultiTox-Fluor Multiplex Cytotoxicity Assay in tet-inducible APOL1 T-REx-HEK293 cells (cell rescue, ratio of dead to live cells)
Details: tet-inducible transgenic APOL1 T-REx-HEK293 cell lines, 50 ng/mL tet, 24 hours; read-out: IP50 (i.e., IC50 for cell proliferation)
pIC50: −log10 of the molar value.
Here the recorded pIC50 is given for each entry.

Below are worked cases with known answers.
CC(C)Cc1cc2c(s1)CCO[C@@]21CCN(Cc2cn(CCS(C)(=O)=O)nn2)[C@@H](C)C1 = 6.30 to 7.00
C[C@H]1C[C@@]2(CCN1C1CCCC1O)OCCc1cc(C(F)(F)F)sc12 (some centres unmarked) [Compound 864] = 6.30 to 7.00
CCc1cc2c(s1)CCO[C@@]21CCN(Cc2cn(C3(CO)CCOC3)nn2)[C@@H](C)C1 (some centres unmarked) = 6.00 to 6.30
C[C@H]1C[C@@]2(CCN1Cc1cn(CCS(C)(=O)=O)nn1)OCCc1c2sc(C(F)(F)F)c1Cl = > 7.00
CC(=O)N(C)C1CO[C@@]2(CCN(Cc3cnn(CCS(C)(=O)=O)c3)[C@@H](C)C2)c2sc(Cl)cc21 (some centres unmarked) = > 7.00

Task item: Find the measured pIC50: item `CCc1cc2c(s1)CCO[C@@]21CCN(CC2CNC2)[C@@H](C)C1` , target or system APOL1 (Homo sapiens).
Reply: 6.00 to 6.30

Task item: Find the measured pIC50: item `C[C@H]1C[C@@]2(CCN1CC1CC1)OCCc1cc(CC(F)F)sc12` , target or system APOL1 (Homo sapiens).
Reply: > 7.00

Task item: Find the measured pIC50: item `CCc1cc2c(s1)CCO[C@@]21CCN(CC2CN(C(=O)c3ncc[nH]3)C2)[C@@H](C)C1` , target or system APOL1 (Homo sapiens).
Reply: > 7.00
